- EXPERIMENTAL_SYSTEM: T1, human GIP receptor (human) (UniProt P48546)
- T1 sequence (looked up): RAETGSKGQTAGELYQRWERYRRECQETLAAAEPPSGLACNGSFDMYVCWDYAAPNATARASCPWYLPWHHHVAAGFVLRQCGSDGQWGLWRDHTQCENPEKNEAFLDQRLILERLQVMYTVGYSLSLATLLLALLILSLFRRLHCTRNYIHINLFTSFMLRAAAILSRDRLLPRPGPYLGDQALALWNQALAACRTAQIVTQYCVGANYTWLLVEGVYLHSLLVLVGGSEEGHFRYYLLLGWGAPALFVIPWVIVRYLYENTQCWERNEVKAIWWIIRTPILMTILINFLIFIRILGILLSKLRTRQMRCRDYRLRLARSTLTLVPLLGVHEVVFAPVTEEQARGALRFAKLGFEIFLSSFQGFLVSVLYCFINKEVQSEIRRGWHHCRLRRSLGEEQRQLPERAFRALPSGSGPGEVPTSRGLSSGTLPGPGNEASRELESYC
- TEST_DETAILS: cell-based or functional assay
# Relative cAMP EC50 values compiled below
State the answer as a number, implicitly in nM.

Worked set:
1) YXQGTXTSDYSILLDKKAQXAFIEXLEEGGPSSGAPPPSEG (synthetic construct; SITE 2: note = 2-Aminoisobutyric Acid; SITE 6: note = alpha-methyl-2-fluoro-L-phenylalanine; SITE 17: note = Lysine is chemically modified through conjugation of the epsilon-amino group of the Lysine side chain with (2-[2-(2-Amino-ethoxy)-ethoxy]-acetyl)-(gamma-Glu)-CO-(CH2) 16-) [Example 411] | 0.058
2) YXQGTFTSDFSXXLDKKAQXAFIEYLLAGGPSSGAPPPSGS (synthetic construct; SITE 2: note = 2-Aminoisobutyric Acid; SITE 12: note = L-ornithine; SITE 13: note = alpha-methyl-leucine; SITE 17: note = Lysine is chemically modified through conjugation of the epsilon-amino group of the Lysine side chain with (2-[2-(2-Amino-ethoxy)-ethoxy]-acetyl)-(gamma-Glu)) [Example 76] | 0.196
3) YXQGTXTSDXXIXLDXKAQXEFIEXLVEGGPSSGEPPPSGSE (non-natural residues; lipidated Lys; C-terminal amide; synthetic construct; SITE 2: note = 2-Aminoisobutyric Acid; SITE 6: note = alpha-methyl-2-fluoro-L-phenylalanine; SITE 10: note = 3-(4-Pyridyl)-L-alanine; SITE 11: note = alpha-methyl-L-serine; SITE 13: note = alpha-methyl-leucine; SITE 16: note = L-ornithine; SITE 17: note = Lysine is chemically mo) [Example 1163] | 0.00951
4) YXQGTFTSDXSQXLDXKAQXQFIEXLIAGGPSSGAPPPSGSEEE (Aib, 4Pal, Orn, Me4Pal, alpha-methyl-Tyr, lipidated Lys, amide; synthetic construct; SITE 2: note = 2-Aminoisobutyric Acid; SITE 10: note = 3-(4-Pyridyl)-L-alanine; SITE 13: note = alpha-methyl-leucine; SITE 16: note = L-ornithine; SITE 17: note = Lysine is chemically modified through conjugation of the epsilon-amino group of the Lysine side chain with D-Glutami) [Example 1081] | 0.105
5) YXQGTXTSDXSIXLDXKAQXXFIEXLIEGGPSSGEPPPSGE (synthetic construct; SITE 2: note = 2-Aminoisobutyric Acid; SITE 6: note = alpha-methyl-2-fluoro-L-phenylalanine; SITE 10: note = 3-(4-Pyridyl)-L-alanine; SITE 13: note = alpha-methyl-leucine; SITE 16: note = L-ornithine; SITE 17: note = Lysine is chemically modified through conjugation of the epsil) [Example 682 (SEQ ID NO: 688)] | 0.00661
6) YXQGTFTSDXSKXLDKKAQXAFIEYLIEXGPSSGAPPPSGSE (synthetic construct; SITE 2: note = 2-Aminoisobutyric Acid; SITE 10: note = 3-(4-Pyridyl)-L-alanine; SITE 13: note = alpha-methyl-leucine; SITE 17: note = Lysine is chemically modified through conjugation of the epsilon-amino group of the Lysine side chain with (2-[2-(2-Amino-ethoxy)-ethoxy]-acetyl)) [Example 901] | 0.17
7) YXQGTXTSDXXIXLDXKAQXEFIEXLIEGGPPSXEPPPXGE (non-natural residues (Aib, αMeF(2F), 4Pal, Orn, Me4Pal); lipidated Lys; C-amide; synthetic construct; SITE 2: note = 2-Aminoisobutyric Acid; SITE 6: note = alpha-methyl-2-fluoro-L-phenylalanine; SITE 10: note = 3-(4-Pyridyl)-L-alanine; SITE 11: note = alpha-methyl-L-serine; SITE 13: note = alpha-methyl-leucine; SITE 16: note = L-ornithine; SITE 17: note = Lysine is chemically mo) [Example 1193] | 0.00897
8) YXQGTFTSDXSQXLDKKAQXAFIEXLIEXGPSSGEPPPSGEEE (non-natural residues (Aib, 4Pal, Me4Pal, αMeL); lipidated Lys; C-amide; synthetic construct; SITE 2: note = 2-Aminoisobutyric Acid; SITE 10: note = 3-(4-Pyridyl)-L-alanine; SITE 13: note = alpha-methyl-leucine; SITE 17: note = Lysine is chemically modified through conjugation of the epsilon-amino group of the Lysine side chain with (gamma-Glu)2-CO-(CH2)16-CO2H; SITE 20:) [Example 1124] | 0.187

// query Find the recorded Relative cAMP EC50 belonging to YXQGTXTSDXSIXLDKKAQXAFIEYLQEGGPSSGEPPPSGSEE ((γGlu)2-C18 diacid on Lys; non-natural residues; amide; synthetic construct; SITE 2: note = 2-Aminoisobutyric Acid; SITE 6: note = alpha-methyl-2-fluoro-L-phenylalanine; SITE 10: note = 3-(4-Pyridyl)-L-alanine; SITE 13: note = alpha-methyl-leucine; SITE 17: note = Lysine is chemically modified through conjugation of the epsilon-amino group of the Lysine) [Example 634] and report it.
// result 0.0195

// query Find the recorded Relative cAMP EC50 belonging to YXQGTXTSDXXIXLDXXAQXEFIEXLIEGGPSSGAPPPSGSE (synthetic construct; SITE 2: note = 2-Aminoisobutyric Acid; SITE 6: note = alpha-methyl-2-fluoro-L-phenylalanine; SITE 10: note = 3-(4-Pyridyl)-L-alanine; SITE 11: note = alpha-methyl-L-serine; SITE 13: note = alpha-methyl-leucine; SITE 16: note = L-ornithine; SITE 17: note = Ornithine is chemically) [Example 1212] and report it.
// result 0.00702

// query Find the recorded Relative cAMP EC50 belonging to YXQGTXTSDXXIXLDXKAAXEFIEXLIEGGPSSGAPPPSGTGX (synthetic construct; SITE 2: note = 2-Aminoisobutyric Acid; SITE 6: note = alpha-methyl-2-fluoro-L-phenylalanine; SITE 10: note = 3-(4-Pyridyl)-L-alanine; SITE 11: note = alpha-methyl-L-serine; SITE 13: note = alpha-methyl-leucine; SITE 16: note = L-ornithine; SITE 17: note = Lysine is chemically mo) [Example 724] and report it.
// result 0.0102

// query Find the recorded Relative cAMP EC50 belonging to YXQGTFTSDFSXXLDKKAQXAFIEYLLEXGPSSGAPPPSGT (synthetic construct; SITE 2: note = 2-Aminoisobutyric Acid; SITE 12: note = L-ornithine; SITE 13: note = alpha-methyl-leucine; SITE 17: note = Lysine is chemically modified through conjugation of the epsilon-amino group of the Lysine side chain with (2-[2-(2-Amino-ethoxy)-ethoxy]-acetyl)-(gamma-Glu)) [Example 278] and report it.
// result 0.0963
